- EXPERIMENTAL SYSTEM: furin, P09958;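 note: purified furin at 1:10 enzyme:substrate in 50 mM HEPES pH 7.5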
- Sequence (P09958 whole entry): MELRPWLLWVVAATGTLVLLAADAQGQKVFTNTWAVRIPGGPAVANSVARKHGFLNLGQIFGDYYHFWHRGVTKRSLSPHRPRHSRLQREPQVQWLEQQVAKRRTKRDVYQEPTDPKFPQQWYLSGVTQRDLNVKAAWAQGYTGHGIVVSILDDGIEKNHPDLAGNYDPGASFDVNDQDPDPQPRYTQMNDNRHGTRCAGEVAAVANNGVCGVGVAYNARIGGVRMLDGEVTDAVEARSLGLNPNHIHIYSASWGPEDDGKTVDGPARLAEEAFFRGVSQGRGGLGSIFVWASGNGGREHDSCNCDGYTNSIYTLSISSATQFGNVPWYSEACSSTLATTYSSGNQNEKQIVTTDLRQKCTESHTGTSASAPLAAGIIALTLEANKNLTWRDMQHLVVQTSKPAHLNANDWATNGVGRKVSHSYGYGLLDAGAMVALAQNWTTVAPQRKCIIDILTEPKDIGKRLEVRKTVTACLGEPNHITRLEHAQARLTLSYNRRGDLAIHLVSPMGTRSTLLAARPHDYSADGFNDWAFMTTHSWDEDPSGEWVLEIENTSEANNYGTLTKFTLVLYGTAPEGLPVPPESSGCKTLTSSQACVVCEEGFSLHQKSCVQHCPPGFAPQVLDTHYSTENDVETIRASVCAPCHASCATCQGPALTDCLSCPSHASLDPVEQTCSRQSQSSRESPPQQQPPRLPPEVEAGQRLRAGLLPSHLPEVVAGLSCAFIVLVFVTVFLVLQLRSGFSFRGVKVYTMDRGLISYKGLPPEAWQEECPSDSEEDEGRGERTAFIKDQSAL
- METHOD NOTES: furin cleavage Z-score vs untreated control; higher = more cleavage, active = 3.5 or more, inactive = 1 or less, 8 variable residues between constant flanks
- CONDITIONS: 7.5 min
The other results are listed elsewhere or left out. No count for the full screen is at hand.

{"columns": ["SEQUENCE STRING", "furin cleavage Z-score"],
 "data": [
  ["CAVAYYRGLDAGNASASA [HC868]", 0.403],
  ["CARSKRALENAGNASASA [FS-2523]", 9.22],
  ["CAERLRQKRIAGNASASA [FS-1194]", 4.13],
  ["CASTPCSACLAGNASASA [HC2560]", 0.847],
  ["CALHRRQKRIAGNASASA [FS-821]", 9.03],
  ["CAAHGIDPNIAGNASASA [HC796]", -0.768],
  ["CAMEECSQCLAGNASASA [HC1760]", -0.273]
]}
